experiment: amyloid nucleation score (Sup35N fusion, yeast selection) (log enrichment); library NNK1; higher = more nucleation; inactive = no reads after selection;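 further: zero at mode of non-aggregating sequences after 7 days selection at 30°C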
outcome measure: amyloid nucleation score

substance=GSPLVVSKTVVFMSGNF endpoint_result=7.15
substance=SYQVRDVIKSF endpoint_result=4.52
substance=VNAIYDSWLSL endpoint_result=inactive
substance=LILKISMMGK endpoint_result=inactive
substance=VFRDVHD endpoint_result=0.417
substance=QTKRSCCSFFVNL endpoint_result=6.6
substance=LAFTSLSNLYEDMCYQDWMV endpoint_result=1.82
substance=HWCLMGLCKLFSSARPPLKK endpoint_result=0.085
substance=GRREMEGTHIKKICRGGRTR endpoint_result=1.53
substance=CLFDATVLNVLYQEIAEPRR endpoint_result=inactive
substance=YQDVVDSDD endpoint_result=-0.762
substance=IIFCMVFDSVSDDVLYITSK endpoint_result=-0.941
substance=NLSGDDFGVNEKTSRWCQWG endpoint_result=0.397
substance=KVGLSMKYRPYS endpoint_result=2.29
substance=DLFRSSLSPVSLLHSDMDMG endpoint_result=0.12
substance=MWYLMRTLTLIRFFVSPVGS endpoint_result=0.154
substance=LNNLVFVLLV endpoint_result=3.37
substance=MDLKTY endpoint_result=-0.696

###

assay: amyloid nucleation score (Sup35N fusion, yeast selection) (log enrichment); library NNK1; higher = more nucleation; inactive = no reads after selection
Binary call on amyloid nucleation score: true (1) from 0.4 upward, false (0) beneath that.

substance=LSEWNPSLVCMERTLHCS class_assignment="true (1)"
substance=SIHVGVSRG class_assignment="true (1)"
substance=LYAKLQLLRNKYRVYLFVTS class_assignment="false (0)"
substance=WCCWVMCV class_assignment="true (1)"
substance=LRCVLQSRRWEIGMLRLTER class_assignment="false (0)"
substance=VGMSSDCAGSLRRWRLWARL class_assignment="true (1)"
substance=NLFSLYGSNFLSP class_assignment="true (1)"
substance=IYRSVANSMKVSEYQIPLDS class_assignment="false (0)"
substance=LMQLHCLARSLYPFPWSGPT class_assignment="true (1)"
substance=AFMSRVPFSHCIKSGGLQGT class_assignment="false (0)"
substance=LMRRGGCVYVGFFWELVCFQ class_assignment="false (0)"
substance=CASRFMCGPTINKWVR class_assignment="false (0)"
substance=ASLAIGFSIKSHYVMCRVYP class_assignment="true (1)"
substance=RYGRYSCSIIEGLCLMSSKW class_assignment="true (1)"
substance=RANQHRGYIFSILVTFCYST class_assignment="false (0)"
substance=CAKGCCD class_assignment="false (0)"
substance=SRLSLT class_assignment="false (0)"

###

assay: amyloid nucleation score (Sup35N fusion, yeast selection) (log enrichment); library NNK1; higher = more nucleation; inactive = no reads after selection
Rule: amyloid nucleation score of 0.3 or more gives YES; anything lower gives NO.

substance=SKLMTRVTVWLGSYGRGSWH class_assignment=YES
substance=MIPKNFLGGNPLQRRESPIC class_assignment=YES
substance=DRRMSTTVMGRFVWRDRYVG class_assignment=YES
substance=VLFYQF class_assignment=NO
substance=YSYKCGGVRTSTSFLSMLFV class_assignment=YES
substance=CTIWPSQDGRGCTLCGSRL class_assignment=YES
substance=IMCIHSFCFCLRPSHLIVGG class_assignment=YES
substance=SWLCHRTSVLVPVVSISRKL class_assignment=YES
substance=LPVLSGWTNTAA class_assignment=NO
substance=YSLTYVNSYLFGINDCKGPD class_assignment=YES
substance=NYFIVLSR class_assignment=YES
substance=PMVIYNFEFNFGVSSDRIYA class_assignment=YES
substance=FGFHRVGSGIMRVVAQH class_assignment=NO
substance=RMGNLEKCKEPGVVNRWLGI class_assignment=NO
substance=SKKSSRDLNSTSGRR class_assignment=NO
substance=AGVCYWTLDILPY class_assignment=YES
substance=FCICNRKRHNPSPEKKNA class_assignment=NO
substance=KRFTRTNILRMTCT class_assignment=YES
substance=SIRMGSEVRSDNEMVMRWQM class_assignment=YES
substance=VGIEFLYLPFVSSRWVVTKW class_assignment=NO
substance=MAVYFLGFIA class_assignment=YES
substance=LHSPDFDLYYVLRILACDTQ class_assignment=NO
substance=SADKSSFKPFLESTASRVQI class_assignment=NO
substance=RGQQPFVTLKRAVFKSINTD class_assignment=NO
substance=LIDLSSIKSWHVFSKALCGR class_assignment=NO
substance=QYMREEAGVALNGETHFFSL class_assignment=YES
substance=PTGSYKAGSSSSLVYPFED class_assignment=NO
substance=FVGGPPMIQYVVPV class_assignment=YES
substance=KRLTMVVRGKLSVLHP class_assignment=YES
substance=KNMAYHDSLDSVYPAVG class_assignment=YES
substance=PAVFCW class_assignment=YES
substance=VLKCFSLEVVTWDSACLAGL class_assignment=NO
